Recorded PBM binding z-score values for a group of sequences are listed next.
System: VDR:RXRa (NR concentration 270 nM, RXRa partner concentration 90 nM)
Experimental Protocol: PBM binding z-score (relative to random genomic background probes); higher = stronger binding; sequences stand for … in GC…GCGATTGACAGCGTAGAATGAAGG
Quick one: just the number, no unit, thanks!

Requested read-out PBM binding z-score, target or system VDR:RXRa (NR concentration 270 nM, RXRa partner concentration 90 nM), entry ATATGTAGGTTAGCTGGGGTAATTCAGACTAGGC
0.945

Continuing:
Requested read-out PBM binding z-score, target or system VDR:RXRa (NR concentration 270 nM, RXRa partner concentration 90 nM), entry CTACCATGGTGAACAAGGTCGTTGATTACTATTC
3.04

Requested read-out PBM binding z-score, target or system VDR:RXRa (NR concentration 270 nM, RXRa partner concentration 90 nM), entry TCTGCTAGGTCTGTTGGTCAGCTAACGAGCTGCC
-0.568

Requested read-out PBM binding z-score, target or system VDR:RXRa (NR concentration 270 nM, RXRa partner concentration 90 nM), entry GGAACGAGGGCAAGTTGAAAGCAGAGTTTGATGG
0.74

Requested read-out PBM binding z-score, target or system VDR:RXRa (NR concentration 270 nM, RXRa partner concentration 90 nM), entry TCAGACAGGTGAAGGTAACACAGGTACGCAGTCG
1.05

Requested read-out PBM binding z-score, target or system VDR:RXRa (NR concentration 270 nM, RXRa partner concentration 90 nM), entry TCGAGGAGGTTACCAATGGGGCATTCAGCTTTCT
1.13

Requested read-out PBM binding z-score, target or system VDR:RXRa (NR concentration 270 nM, RXRa partner concentration 90 nM), entry TTACCAAGGTGAGCTGAGGTCGTCGATCCAACTC
3.49
